# Test Target: MCL-1 (Homo sapiens, UniProt Q07820, K194A/K197A/R201A)
# Sequence (Q07820 173-321 K194A/K197A/R201A, looked up): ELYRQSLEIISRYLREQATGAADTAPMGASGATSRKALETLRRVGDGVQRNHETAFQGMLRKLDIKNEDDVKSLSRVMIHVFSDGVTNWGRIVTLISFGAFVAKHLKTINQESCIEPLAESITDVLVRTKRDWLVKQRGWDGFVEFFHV
# Protocol Description: Protein-protein interaction assay MCL-1/Noxa BH3 peptide, TR-FRET (MCL-1 assay, Assay 1)
# Format: binding
# Condition Parameters: MBP-MCL-1 / Noxa BH3 peptide, median, read-out: MCL-1 Assay [M] (median)
# Experimental: The dose-dependent inhibition by the compounds described in this invention of the interaction between MCL-1 and the BH3 domain of Noxa (both human) was determined using a steady state binding competition assay with time-resolved fluorescence energy transfer (TR-FRET) readout. […]
Endpoint: IC50 (M)

CCc1c2c(nn1C)COCc1ccccc1Cn1c(C(=O)O)c(CCCOc3cccc4ccccc34)c3ccc(F)c-2c31 (racemic) | 2.1e-09
CCNCC.Cc1c2c(nn1C)COCc1ncccc1Cn1c(C(=O)O)c(CCCOc3cccc4ccccc34)c3ccc(Cl)c-2c31 (single isomer, unassigned; enantiomer 1) | 5.1e-10
CCc1nn(C)c2c1-c1c(Cl)ccc3c(CCCOc4cccc5cc(F)ccc45)c(C(=O)O)n(c13)Cc1ccccc1COC2 (single isomer, unassigned; enantiomer 1) | 2.6e-09

----------
# Tested on: SUDHL5
# Protocol Description: Anti-proliferative effect in SUDHL5 cells, CellTiter-Glo (Assay 7)
# Format: cell-based
# Condition Parameters: SUDHL5, 72 hours incubation, CellTiter-Glo; median; read-out: Antiproli SUDHL5 [M] (median)
# Description: Assessment of the Anti-Proliferative Effect of Compounds in Different Cell Lines The impact of compounds on the proliferation of different cell lines was assessed using the CellTiter-Glo® Luminescent Cell Viability reagent from Promega (G7573). In parallel, cells were plated in a reference (day 0) plate for time zero determination. […] After 72 hours incubation, the treated plates were measured in the same way as the day 0 plate mentioned above. […]
Recorded IC50 by entry
Endpoint: IC50 (M)

Cc1c2c(nn1C)COCc1ccccc1Cn1c(C(=O)O)c(CCCOc3cccc4ccccc34)c3cccc-2c31 (single isomer, unassigned; enantiomer 2) [Example 3] | 7.7e-06
Cc1c2c(nn1C)COCc1nccnc1Cn1c(C(=O)O)c(CCCOc3cccc4ccccc34)c3ccc(Cl)c-2c31 (single isomer, unassigned; enantiomer 2) | 4.6e-06
CCc1c2c(nn1C)COCc1ccccc1Cn1c(C(=O)O)c(CCCOc3cccc4ccccc34)c3ccc(F)c-2c31 (racemic) | 2.2e-06
Cc1c2c(nn1C)COCc1ccccc1Cn1c(C(=O)O)c(CCCOc3cccc4cc(F)ccc34)c3ccc(Cl)c-2c31 (single isomer, unassigned; enantiomer 2) | 1.5e-06
CCc1nn(CCN2CCOCC2)c2c1-c1c(Cl)ccc3c(CCCOc4cccc5cc(F)ccc45)c(C(=O)O)n(c13)Cc1ccccc1COC2 (single isomer, unassigned; enantiomer 1) [Example 52] | 5.7e-07

----------
# Test Target: MCL-1 (Homo sapiens, UniProt Q07820, K194A/K197A/R201A)
# Protocol Description: Protein-compound interaction assay, surface plasmon resonance (SPR assay, Assay 8)
# Type: binding
# Condition Parameters: KD [M], SPR, immobilized MBP-MCL-1, 25° C.; geometric mean
Endpoint: Kd (M)

Cc1c2c(nn1C)COCc1ccccc1Cn1c(C(=O)O)c(CCCOc3cccc4cc(F)ccc34)c3ccc(F)c-2c31 (single isomer, unassigned; enantiomer 1) | 1.4e-09
Cc1c2c(nn1C)COCc1ccccc1Cn1c(C(=O)O)c(CCCOc3cccc4ccccc34)c3cccc-2c31 (single isomer, unassigned; enantiomer 1) [Example 2] | 6e-09
Cc1c2c(nn1C)COCc1ccccc1Cn1c(C(=O)O)c(CCCOc3cccc4ccccc34)c3cccc-2c31 (single isomer, unassigned; enantiomer 2) [Example 3] | 1.7e-07
Cc1c2c(nn1C)COCc1ccccc1Cn1c(C(=O)O)c(CCCOc3cccc4cc(F)ccc34)c3ccc(Cl)c-2c31 (single isomer, unassigned; enantiomer 2) [Example 50] | 3.8e-09
Cc1c2c(nn1C)COCc1ccccc1Cn1c(C(=O)O)c(CCCOc3cccc4cc(F)ccc34)c3ccc(Cl)c-2c31 (racemic) [Example 48] | 8e-09
Cc1c2c(nn1C)COCc1ccccc1Cn1c(C(=O)O)c(CCCOc3cccc4cc(F)ccc34)c3ccc(Cl)c-2c31 (single isomer, unassigned; enantiomer 1) [Example 49] | 3e-09

----------
Recorded IC50 by entry
# Test Target: BCL-XL (Homo sapiens, UniProt Q07817)
# Sequence (Q07817 1-212): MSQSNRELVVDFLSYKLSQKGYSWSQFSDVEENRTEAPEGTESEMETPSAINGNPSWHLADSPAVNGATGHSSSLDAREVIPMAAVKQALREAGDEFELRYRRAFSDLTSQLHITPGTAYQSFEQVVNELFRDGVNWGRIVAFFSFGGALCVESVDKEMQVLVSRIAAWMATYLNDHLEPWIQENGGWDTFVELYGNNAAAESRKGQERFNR
# Protocol Description: Protein-protein interaction assay BCL-XL/Bad BH3 peptide, TR-FRET (BCL-XL assay, Assay 2)
# Format: binding
# Condition Parameters: His-BCL-XL / Bad BH3 peptide, median
Endpoint: IC50

CCc1c2c(nn1C)COCc1ccccc1Cn1c(C(=O)O)c(CCCOc3cccc4ccccc34)c3ccc(F)c-2c31 (single isomer, unassigned; enantiomer 1) [Example 71] | > 20 µM
Cc1c2c(nn1C)COCc1ccccc1Cn1c(C(=O)O)c(CCCOc3cccc4c3CCCC4)c3ccc(F)c-2c31 (racemic) [Example 62] | > 20 µM
CCc1c2c(nn1C)COCc1ccccc1Cn1c(C(=O)O)c(CCCOc3cc(C)c(Cl)c(C)c3)c3ccc(F)c-2c31 (racemic) [Example 79] | 19.6 µM
CCc1c2c(nn1C)COCc1ccccc1Cn1c(C(=O)O)c(CCCOc3cccc4c3CCCC4)c3ccc(F)c-2c31 (racemic) [Example 77] | > 20 µM
CCc1c2c(nn1C)COCc1ccccc1Cn1c(C(=O)O)c(CCCOc3cccc4cc(F)ccc34)c3ccc(F)c-2c31 (single isomer, unassigned; enantiomer 1) [Example 74] | > 20 µM

----------
# Tested on: SUDHL5
# Protocol Description: Anti-proliferative effect in SUDHL5 cells, CellTiter-Glo (Assay 7)
# Format: cell-based
# Condition Parameters: SUDHL5, 72 hours incubation, CellTiter-Glo; median; read-out: Antiproli SUDHL5 [M] (median)
Endpoint: IC50 (M)

CCc1nn(C)c2c1-c1c(Cl)ccc3c(CCCOc4cccc5cc(F)ccc45)c(C(=O)O)n(c13)Cc1ccccc1COC2 (single isomer, unassigned; enantiomer 1) | 1.2e-06
Cc1c2c(nn1C)COCc1ncccc1Cn1c(C(=O)O)c(CCCOc3cccc4ccccc34)c3cccc-2c31 (single isomer, unassigned; enantiomer 2) [Example 9] | 2e-05
Cc1c2c(nn1C)COCc1cccnc1Cn1c(C(=O)O)c(CCCOc3cccc4ccccc34)c3cccc-2c31 (single isomer, unassigned; enantiomer 1) [Example 5] | 5.2e-06
Cc1c2c(nn1C)COCc1ccccc1Cn1c(C(=O)O)c(CCCOc3cccc4ccccc34)c3cccc-2c31 (single isomer, unassigned; enantiomer 1) [Example 2] | 2.9e-06
Cc1c2c(nn1C)COCc1ncccc1Cn1c(C(=O)O)c(CCCOc3cccc4ccccc34)c3cccc-2c31 (single isomer, unassigned; enantiomer 1) [Example 8] | 3.2e-06

----------
# Test Target: MCL-1 (Homo sapiens, UniProt Q07820, K194A/K197A/R201A)
# Protocol Description: Protein-compound interaction assay, surface plasmon resonance (SPR assay, Assay 8)
# Assay type: binding
# Condition Parameters: SPR, immobilized MBP-MCL-1, 25° C.; geometric mean
Endpoint: kon [1/M 1/s]

Cc1c2c(nn1C)COCc1ccccc1Cn1c(C(=O)O)c(CCCOc3cccc4ccccc34)c3cccc-2c31 (single isomer, unassigned; enantiomer 1) [Example 2] | 1.1E7 1/M 1/s
Cc1c2c(nn1C)COCc1ccccc1Cn1c(C(=O)O)c(CCCOc3cccc4cc(F)ccc34)c3ccc(Cl)c-2c31 (single isomer, unassigned; enantiomer 2) [Example 50] | 1.6E6 1/M 1/s
Cc1c2c(nn1C)COCc1ccccc1Cn1c(C(=O)O)c(CCCOc3cccc4ccccc34)c3cccc-2c31 (single isomer, unassigned; enantiomer 2) [Example 3] | 2.8E5 1/M 1/s
CCNCC.Cc1c2c(nn1C)COCc1ncccc1Cn1c(C(=O)O)c(CCCOc3cccc4ccccc34)c3ccc(Cl)c-2c31 (single isomer, unassigned; enantiomer 1) [Example 43] | 5.6E6 1/M 1/s

----------
Recorded IC50 by entry
# Tested on: SUDHL10
# Protocol Description: Induction of cytotoxicity in SUDHL10 cells, CellTiter-Glo (Assay 6)
# Assay type: cell-based
# Condition Parameters: SUDHL10, 5 hours incubation, median, read-out: Cytotox SUDHL10 [M] (median)
Endpoint: IC50 (M)

Cc1c2c(nn1C)COCc1ccccc1Cn1c(C(=O)O)c(CCCOc3cccc4ccccc34)c3cccc-2c31 (single isomer, unassigned; enantiomer 1) [Example 2] | 7.3e-06
Cc1c2c(nn1C)COCc1ncccc1Cn1c(C(=O)O)c(CCCOc3cccc4ccccc34)c3cccc-2c31 (single isomer, unassigned; enantiomer 1) [Example 8] | 7.2e-06
CCc1nn(C)c2c1-c1c(Cl)ccc3c(CCCOc4cccc5cc(F)ccc45)c(C(=O)O)n(c13)Cc1ccccc1COC2 (single isomer, unassigned; enantiomer 1) [Example 58] | 2.6e-06
CCc1nn(CCN2CCOCC2)c2c1-c1c(Cl)ccc3c(CCCOc4cccc5cc(F)ccc45)c(C(=O)O)n(c13)Cc1ccccc1COC2 (single isomer, unassigned; enantiomer 2) [Example 53] | 6.5e-06
Cc1c2c(nn1C)COCc1cccnc1Cn1c(C(=O)O)c(CCCOc3cccc4ccccc34)c3cccc-2c31 (single isomer, unassigned; enantiomer 1) [Example 5] | 1.3e-05
CCc1c2c(nn1C)COCc1ccccc1Cn1c(C(=O)O)c(CCCOc3cccc4cc(F)ccc34)c3ccc(F)c-2c31 (single isomer, unassigned; enantiomer 2) [Example 75] | 1e-05
Cc1c2c(nn1C)CN(C)Cc1ccccc1Cn1c(C(=O)O)c(CCCOc3cccc4ccccc34)c3cccc-2c31 (single isomer, unassigned; enantiomer 1) [Example 15] | 1.1e-05
